- runParameters: buffer; pH 7.4; 200.0 µM
So basically, the class depends on measured solubility kinetic, and the ranges are low band (below 8 µg/mL), middle band (8 µg/mL to below 30 µg/mL), high band (30 µg/mL or more)

Exam item: assign CN(C)C(=O)c1cc(C(=O)c2ccc(F)cc2F)c[nH]1 to the correct category.
high band

Kindly state the category for this compound: Fc1cccc(C2CCCCN2Cc2nc(C3CC3)no2)c1 (centres undefined)
middle band

Form: Item = COc1ccc(CCNC(=O)COC(=O)CCC(=O)c2ccc(F)cc2)cc1 ; Class = ?
middle band

Into which bin does this compound go? S=C1NCN(CCc2ccccc2)CN1Cc1ccccc1
low band

Field: class (solubility kinetic) — entry: Cc1ccc(C(=O)C[n+]2cccc3cc(C)ccc32)cc1.[Br-]
high band

Sort into band: CCOC(=O)C1CCN(c2c(NCCC(C)C)c(=O)c2=O)CC1
high band

Categorize the following entry: CSc1ncc(CO)n1Cc1ccccc1
high band

Hi, small favor: classify COC(=O)c1cc(NC(=O)c2cccs2)ccc1N1CCOCC1 by its solubility kinetic when you get a moment.
high band

Which band does O=C(NCCCl)c1ccc(OCc2ccccc2)cc1Cl fall in?
high band

State the class of the compound shown: COc1ccc(NC(=S)NCCN2CCOCC2)cc1
high band

Which class is correct for the following compound? O=c1c2ccccc2ncn1Cc1ccccc1
high band

Into which category would you place CC(=O)c1ccc(Sc2ccccc2)c([N+](=O)[O-])c1 ?
low band

// bin(item) where item = CC1(C2CC2)NC(=O)N(CC(=O)Nc2ccccc2C#N)C1=O (centres undefined)
high band

Category of COc1ccccc1N(C)S(=O)(=O)c1ccc(C(=O)Nc2ccc(C(N)=O)cc2)cc1 , please.
low band

Into which category would you place CN(C(=O)c1ccc(F)cc1)c1ccc(OCC(=O)Nc2ccccc2C(=O)O)cc1 ?
high band

Category lookup for the compound CCOC(=O)c1cc(C)nc(SC)c1C#N
middle band

Category of c1cnc2ccc(-c3ccc4ncccc4c3)cc2c1 :
low band

Exercise: read the entry Cc1ccc(N2C(=O)CC(NCC3CCCO3)C2=O)cc1 (centres undefined) and state which class it falls under.
high band
